tested on: CCRF-CEM leukemia; assay: NCI tumour cell line growth inhibition, 48 h
TGI values, listed per item
quantity: TGI

In [3]: df
Out[3]:
                                item_smiles       assay_target  meas_value
0  N#Cc1c(-n2c(Br)c(Br)c3cc(Br)ccc32)[nH]c2c(Br)cc(Br)cc12  CCRF-CEM leukemia   > 18.2 µM
1  CCCCCCNC(=O)Oc1ccc(/C(=C(/C)c2ccc(OC)cc2)c2ccc(OCCN3CCCCCC3)cc2)cc1  CCRF-CEM leukemia    > 100 µM
2  O=C(CCCCCCNC(=O)C(O)(O)C(F)(F)F)Nc1ccc(Cl)cc1  CCRF-CEM leukemia   > 36.8 µM
3  Cc1cc(O)c(=O)cc2c1C[C@H]1CC(C)(C)/C=C/C[C@]3(C)Oc4cc(=O)c(O)cc(C)c4C[C@H]3C[C@H](O)[C@@]1(C)O2  CCRF-CEM leukemia   > 16.7 µM

Source listed as PubChem BioAssay (NCI).
